Target: T1, cynomolgus CD70 recombinant protein (cynomolgus, UniProt A0A2K5WTU9 39-190)
T1 construct: also called cyno-antigen; cynomolgus CD70 protein
T1 sequence: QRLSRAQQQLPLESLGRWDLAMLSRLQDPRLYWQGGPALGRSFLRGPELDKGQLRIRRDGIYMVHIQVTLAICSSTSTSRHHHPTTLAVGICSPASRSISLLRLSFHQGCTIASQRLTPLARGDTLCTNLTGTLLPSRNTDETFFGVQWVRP
Assay: ELISA, IgG titrated on coated cynomolgus CD70 recombinant protein (2 µg/ml), anti-human Fc-HRP, OD450
Below, each entry is listed with its recorded EC50.
Lab book: enter the figure in ng/mL, no units written.

Example entries begin here.
binder	EC50 / ng/mL
1F6 (Vorsetuzumab), reference antibody, full IgG (antibody, V domains shown, also called h1F6; h1 F6) VH: QVQLVQSGAEVKKPGASVKVSCKASGYTFTNYGMNWVRQAPGQGLKWMGWINTYTGEPTYADAFKGRVTMTRDTSISTAYMELSRLRSDDTAVYYCARDYGDYGMDYWGQGTTVTVSS VL: DIVMTQSPDSLAVSLGERATINCRASKSVSTSGYSFMHWYQQKPGQPPKLLIYLASNLESGVPDRFSGSGSGTDFTLTISSLQAEDVAVYYCQHSREVPWTFGQGTKVEIK	2.84
1H8, full IgG (antibody, V domains shown) VH: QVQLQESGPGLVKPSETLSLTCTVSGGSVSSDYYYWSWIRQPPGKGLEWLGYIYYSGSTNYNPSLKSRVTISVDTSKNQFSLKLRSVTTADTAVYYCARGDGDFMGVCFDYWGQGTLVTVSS VL: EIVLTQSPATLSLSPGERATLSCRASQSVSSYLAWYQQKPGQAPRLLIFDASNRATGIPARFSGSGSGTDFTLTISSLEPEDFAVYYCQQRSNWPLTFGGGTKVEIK	3.26

# ---- query binder ----
Recorded EC50 for 2A4P0L1, full IgG (antibody, V domains shown) VH: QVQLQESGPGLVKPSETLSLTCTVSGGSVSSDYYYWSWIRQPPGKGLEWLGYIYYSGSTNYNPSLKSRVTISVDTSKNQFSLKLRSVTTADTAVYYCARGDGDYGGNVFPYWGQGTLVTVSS VL: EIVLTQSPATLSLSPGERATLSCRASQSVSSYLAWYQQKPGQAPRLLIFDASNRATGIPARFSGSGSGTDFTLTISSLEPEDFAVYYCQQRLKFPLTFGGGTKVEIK , please?
3.35
